molecular target: Histone-lysine N-methyltransferase EHMT2 (Homo sapiens) (UniProt Q96KQ7); test: qHTS Assay for Inhibitors of Histone Lysine Methyltransferase G9a; conditions: G9a H3K9 monomethylation, AlphaScreen, 2 h; series mostly up to 59 µM; further: nearly all actives have a fitted effect of over 75% in size; further: potency means the concentration at half of the fitted maximal effect
Sequence (Q96KQ7 913-1193 limits assumed): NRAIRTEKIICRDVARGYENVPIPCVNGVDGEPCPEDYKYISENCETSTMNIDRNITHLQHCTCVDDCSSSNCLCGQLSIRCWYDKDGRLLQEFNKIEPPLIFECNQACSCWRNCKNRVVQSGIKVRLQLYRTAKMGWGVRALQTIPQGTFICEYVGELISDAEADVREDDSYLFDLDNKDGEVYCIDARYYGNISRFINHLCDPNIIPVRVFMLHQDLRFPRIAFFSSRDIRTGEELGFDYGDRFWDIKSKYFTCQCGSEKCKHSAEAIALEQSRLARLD
The campaign covered roughly 350,000 compounds. About 31,000 (8.9%) were called active. Not shown: some 15% with an inconclusive outcome. The sample holds actives, similar compounds and a random draw of the others, so the mix is not that of the screen.
endpoint.name: Potency

Some solved cases for reference:
COc1ccc(S(=O)(=O)c2c(Nc3cccc(Cl)c3)sc(C(=O)c3ccccc3)c2N)cc1 | inactive
COc1ccc(C(=O)ON=C2c3ccccc3-c3ccccc32)cc1OC | inactive
CCOC(=O)CNC(=O)CSc1nnc(COc2ccc(Cl)cc2)n1CC | 20 µM (active)
Cn1nnnc1SCc1cc(=O)[nH]c2ccccc12 | inactive
Cc1cc(Oc2ccc(Cl)cc2)nc(SCC(=O)c2ccccc2)n1 | inactive

Below are some compounds; for each one, tell me its Potency.
1. CCOC(=O)CCCN1CC(O)=C(c2nc3ccccc3s2)C1=N
2. CN1C(=O)C2(OCCCO2)c2cc(Cl)ccc21
3. COc1ccc(-c2onc(C)c2C)cc1S(=O)(=O)NCc1cccs1
4. CC1=C(C(=O)OCC2CCCCC2)C(c2c(F)cccc2Cl)CC(=O)N1 (centres undefined)
5. Cc1ccc(C(=O)Nc2nc(-c3ccccc3)ns2)cc1
6. CCc1nnc(SCc2nc(-c3cccc(C)c3)oc2C)c2cc3sc(C)cc3n12
7. COc1cc(OC)cc(C(=O)OCC(=O)Nc2ccc(F)cc2F)c1
8. CCc1cccc(-n2nnc(-c3nsc(NC(=O)c4ccc(C)cc4)n3)c2C)c1

inactive
inactive
inactive
inactive
inactive
inactive
inactive
inactive

Return reported Potency values for all items listed beneath this line.
1. CCCN(CC(=O)Nc1ccccc1C)C(=O)c1cc(=O)[nH]c2ccccc12
2. O=C(COC(=O)c1ccc(F)cc1F)Nc1ncccn1
3. CC(C)Cn1c(CCC(=O)O)ccc1-c1cccs1
4. O=C(CSc1cccc[n+]1[O-])c1ccc(-c2ccccc2)cc1

1. inactive
2. 35.5 µM (active)
3. 17.8 µM (active)
4. 3.55 µM (active)

Give one value of Potency per listed compound.
1. C=CCn1c(COc2ccccc2)nnc1SCC(=O)NCC(=O)OCC
2. COc1ccc(NC(=O)ON=C2c3ccccc3-c3ccccc32)cc1
3. Cc1ccc2nc(N3CCN(c4cccc(Cl)c4)CC3)c3nnnn3c2c1
4. O=C(COc1ccccc1F)Nc1ccc(C(=O)OCc2cc(=O)n3nc(C4CC4)sc3n2)cc1
5. COc1ccc(Cl)cc1S(=O)(=O)N1CCC(O)(c2ccc(Cl)cc2)CC1

1: inactive; 2: 25.1 µM (active); 3: inactive; 4: inactive; 5: inactive

For each of the compounds below, note its Potency.
1. CCOC(=O)CNC(=O)CSc1nnc(-c2cccc(OC)c2)n1CC
2. C=CCSc1ccc(S(=O)(=O)N2CCN(C)CC2)cn1
3. N/C(=N\OS(=O)(=O)c1cccc([N+](=O)[O-])c1)c1ccncc1
4. CCOC(=O)c1oc2c(CN3CCN(C)CC3)c(O)ccc2c(=O)c1-c1ccc(Br)cc1
5. COc1ccccc1NC(=O)CCC(=O)OC(C)C(=O)c1ccccc1 (centres undefined)
6. O=C(Cn1cnc2c(oc3ccccc32)c1=O)Nc1ccc(OC(F)(F)F)cc1

1. 50.1 µM (active)
2. inactive
3. 10 µM (active)
4. inactive
5. inactive
6. inactive
